Experiment: Octanol-water partition coefficient, logD of the compound at pH 3
Assay type: physicochemical
MEASURED_ENDPOINT: logD
In your answer, state the number alone without any accompanying words.

Which logD value is on record for COc1ccc2c(c1)CC(c1c[nH]c3ccc(OC)cc13)N2 (stereo unspecified) ?
1.78

###

Experiment: Octanol-water partition coefficient, logD of the compound at pH 8
Assay type: physicochemical
MEASURED_ENDPOINT: logD
In your answer, state the number alone without any accompanying words.

Which logD value is on record for COc1ccc2c(c1)CC(c1c[nH]c3ccc(OC)cc13)N2 (stereo unspecified) ?
3.31

###

Target: Polyunsaturated fatty acid 5-lipoxygenase (Homo sapiens, UniProt P09917)
Sequence (P09917 whole entry): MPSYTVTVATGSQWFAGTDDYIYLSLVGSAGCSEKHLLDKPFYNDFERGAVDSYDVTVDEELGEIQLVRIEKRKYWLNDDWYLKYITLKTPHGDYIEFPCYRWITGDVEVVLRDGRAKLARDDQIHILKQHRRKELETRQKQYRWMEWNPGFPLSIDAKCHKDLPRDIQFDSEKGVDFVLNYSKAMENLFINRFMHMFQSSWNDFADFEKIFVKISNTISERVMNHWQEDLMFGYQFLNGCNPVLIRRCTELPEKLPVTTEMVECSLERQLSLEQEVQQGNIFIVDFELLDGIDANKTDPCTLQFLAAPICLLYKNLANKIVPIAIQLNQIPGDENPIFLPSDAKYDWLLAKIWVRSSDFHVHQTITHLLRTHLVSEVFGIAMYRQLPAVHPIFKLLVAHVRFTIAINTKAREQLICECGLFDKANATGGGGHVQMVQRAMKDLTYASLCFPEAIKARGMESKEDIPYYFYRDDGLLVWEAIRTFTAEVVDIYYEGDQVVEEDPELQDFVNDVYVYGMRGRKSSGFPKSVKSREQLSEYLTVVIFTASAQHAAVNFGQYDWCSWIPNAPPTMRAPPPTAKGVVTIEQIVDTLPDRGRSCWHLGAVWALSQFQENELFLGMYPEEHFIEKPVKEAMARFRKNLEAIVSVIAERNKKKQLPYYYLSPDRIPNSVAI
MEASURED_ENDPOINT: IC50 (µM)
Please give a number only; it is taken to be in µM.

Which IC50 value is on record for COc1ccc2c(c1)CC(c1c[nH]c3ccc(OC)cc13)N2 (stereo unspecified) ?
5.3

Data provenance: ChEMBL document CHEMBL6071143
